Test: Cytotoxicity / lipocytotoxicity assay (CCK-8)
Assay type: cell-based
Details: human, HepG2 cells, HepG2, DMEM loaded with fatty acid (+OA); read-out: Lipocytotoxicity (LC50), concentration at which 50% of cells died
Overview of recorded CC50 at 24 h for various compounds
measured-endpoint: CC50 at 24 h (µM)

>>> value_measured("O=C(O)C1Cc2c([nH]c3ccccc23)C(c2ccc(CO)o2)N1 (stereo not shown) [Compound 2]")
484
>>> value_measured("COC(=O)C1Cc2c([nH]c3ccccc23)CN1 (stereo not shown) [Compound 5]")
488
>>> value_measured("O=C(O)C1Cc2c([nH]c3ccccc23)CN1 (stereo not shown) [Compound 6]")
520
>>> value_measured("COC(=O)[C@@H]1Cc2c([nH]c3ccccc23)C(c2ccc(COC(C)=O)o2)N1 (stereo partly shown) [Compound 1]")
442
>>> value_measured("COC(=O)c1cc2c([nH]c3ccccc32)c(-c2ccc(COC(C)=O)o2)n1 [Compound 3, flazin methyl ester acetate]")
131
>>> value_measured("O=C(O)c1cc2c(cn1)[nH]c1ccccc12 [Compound 8, β-Carboline-3-carboxylic acid]")
530
>>> value_measured("O=C(O)c1cc2c([nH]c3ccccc32)c(-c2ccc(CO)o2)n1 [Compound 4, flazin]")
600

---

Assay: Cytotoxicity / lipocytotoxicity assay (CCK-8)
Type: cell-based
Conditions: human, HepG2, DMEM loaded with fatty acid (+OA); read-out: Lipocytotoxicity (LC50), concentration at which 50% of cells died
measured-endpoint: CC50 at 24 h (µM)

>>> value_measured("COC(=O)c1cc2c(cn1)[nH]c1ccccc12 [Compound 7, methyl β-carboline-3-carboxylate]")
498

---

Overview of recorded CC50 at 24 h for various compounds
Experiment: Cytotoxicity / lipocytotoxicity assay (CCK-8)
Type: cell-based
Conditions: human, HepG2 cells, HepG2, DMEM without fatty acid (−OA); read-out: Cytotoxicity (CC50), concentration at which 50% of cells died
measured-endpoint: CC50 at 24 h

>>> value_measured("O=C(O)C1Cc2c([nH]c3ccccc23)CN1 (stereo not shown) [Compound 6]")
"505 µM"
>>> value_measured("COC(=O)[C@@H]1Cc2c([nH]c3ccccc23)C(c2ccc(COC(C)=O)o2)N1 (stereo partly shown) [Compound 1]")
"488 µM"
>>> value_measured("COC(=O)c1cc2c([nH]c3ccccc32)c(-c2ccc(COC(C)=O)o2)n1 [Compound 3, flazin methyl ester acetate]")
"66.8 µM"
>>> value_measured("O=C(O)C1Cc2c([nH]c3ccccc23)C(c2ccc(CO)o2)N1 (stereo not shown) [Compound 2]")
"> 700 µM"
>>> value_measured("COC(=O)C1Cc2c([nH]c3ccccc23)CN1 (stereo not shown) [Compound 5]")
"397 µM"
>>> value_measured("O=C(O)c1cc2c([nH]c3ccccc32)c(-c2ccc(CO)o2)n1 [Compound 4, flazin]")
"> 700 µM"
>>> value_measured("O=C(O)c1cc2c(cn1)[nH]c1ccccc12 [Compound 8, β-Carboline-3-carboxylic acid]")
"549 µM"

---

Overview of recorded inhibition at 400 µM for various molecules
System: HepG2 cells
Assay: Lipid droplet accumulation inhibition (LDAI) assay, Oil Red O, oleic acid-loaded cells
Type: cell-based, human
Settings: Homo sapiens, HepG2, 24 h, 400 μM, HepG2 + 0.25 mM oleic acid, vs untreated control (+OA)
measured-endpoint: inhibition at 400 µM (%)

>>> value_measured("COC(=O)[C@@H]1Cc2c([nH]c3ccccc23)C(c2ccc(COC(C)=O)o2)N1 (some centres unmarked)")
63.2
>>> value_measured("O=C(O)c1cc2c([nH]c3ccccc32)c(-c2ccc(CO)o2)n1")
77.5
>>> value_measured("O=C(O)c1cc2c(cn1)[nH]c1ccccc12")
81.8
>>> value_measured("O=C(O)C1Cc2c([nH]c3ccccc23)C(c2ccc(CO)o2)N1 (centres unmarked)")
74
>>> value_measured("COC(=O)C1Cc2c([nH]c3ccccc23)CN1 (centres unmarked)")
42
